Origin of values: patent US20170247475A1

Target: T1, recombinant human VEGF165 (human, UniProt P15692-4 27-191)
T1 construct: also called hVEGF165; rhVEGF165
T1 sequence (P15692 other isoform, or with tags, fused parts or gaps limits assumed): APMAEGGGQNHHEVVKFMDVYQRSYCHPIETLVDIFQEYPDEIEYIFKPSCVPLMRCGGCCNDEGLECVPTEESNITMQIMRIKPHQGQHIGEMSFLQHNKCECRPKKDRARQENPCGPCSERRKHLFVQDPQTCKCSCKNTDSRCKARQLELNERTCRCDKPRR
Assay: SPR Biacore T100, Two State Reaction model; KD = kd1/ka1 * (kd2/(kd2 + ka2))
Endpoint Name: Kd (nM)
Expressed in nM, but write only the number.

VEGFBII010 (VHH, bivalent VHH in one chain; also called VEGFBII23B04-35GS-23B04; homodimeric VEGFBII23B04) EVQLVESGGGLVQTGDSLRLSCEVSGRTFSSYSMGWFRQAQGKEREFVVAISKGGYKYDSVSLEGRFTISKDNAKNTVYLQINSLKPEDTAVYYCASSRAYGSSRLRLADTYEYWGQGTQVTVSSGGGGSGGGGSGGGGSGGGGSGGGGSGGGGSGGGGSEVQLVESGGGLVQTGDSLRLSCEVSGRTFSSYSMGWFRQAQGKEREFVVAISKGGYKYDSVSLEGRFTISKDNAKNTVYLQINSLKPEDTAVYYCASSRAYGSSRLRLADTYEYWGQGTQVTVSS: 0.16

# context switch: different binder, same Kd
Specify measured Kd for VEGFBII024 (VHH, biparatopic bivalent VHH in one chain; also called VEGFBII23B04-40GS-86H09; VEGFBI024) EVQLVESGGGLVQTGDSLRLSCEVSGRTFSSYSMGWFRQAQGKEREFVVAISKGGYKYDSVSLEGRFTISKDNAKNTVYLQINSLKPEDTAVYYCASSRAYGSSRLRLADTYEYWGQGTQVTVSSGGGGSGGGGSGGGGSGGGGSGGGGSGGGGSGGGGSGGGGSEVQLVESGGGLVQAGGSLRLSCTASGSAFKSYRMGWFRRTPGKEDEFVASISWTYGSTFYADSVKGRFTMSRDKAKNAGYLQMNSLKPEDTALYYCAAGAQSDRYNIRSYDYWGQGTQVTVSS .
0.47
